measured_property: IC50 (nM)
Give a bare numeral; the unit nM is implied.

Qu. Give measured IC50 for `C=C(C)[C@@H]1CC[C@]2(CO)CC[C@]3(C)[C@H](CC[C@@H]4[C@@]5(C)CC[C@H](O)C(C)(C)[C@@H]5CC[C@]43C)[C@@H]12` (GSK-3α (Homo sapiens, UniProt P49840)).
Ans. 720

---

- test_target: ABL1 (Homo sapiens, UniProt P00519)
- Sequence (P00519 whole entry): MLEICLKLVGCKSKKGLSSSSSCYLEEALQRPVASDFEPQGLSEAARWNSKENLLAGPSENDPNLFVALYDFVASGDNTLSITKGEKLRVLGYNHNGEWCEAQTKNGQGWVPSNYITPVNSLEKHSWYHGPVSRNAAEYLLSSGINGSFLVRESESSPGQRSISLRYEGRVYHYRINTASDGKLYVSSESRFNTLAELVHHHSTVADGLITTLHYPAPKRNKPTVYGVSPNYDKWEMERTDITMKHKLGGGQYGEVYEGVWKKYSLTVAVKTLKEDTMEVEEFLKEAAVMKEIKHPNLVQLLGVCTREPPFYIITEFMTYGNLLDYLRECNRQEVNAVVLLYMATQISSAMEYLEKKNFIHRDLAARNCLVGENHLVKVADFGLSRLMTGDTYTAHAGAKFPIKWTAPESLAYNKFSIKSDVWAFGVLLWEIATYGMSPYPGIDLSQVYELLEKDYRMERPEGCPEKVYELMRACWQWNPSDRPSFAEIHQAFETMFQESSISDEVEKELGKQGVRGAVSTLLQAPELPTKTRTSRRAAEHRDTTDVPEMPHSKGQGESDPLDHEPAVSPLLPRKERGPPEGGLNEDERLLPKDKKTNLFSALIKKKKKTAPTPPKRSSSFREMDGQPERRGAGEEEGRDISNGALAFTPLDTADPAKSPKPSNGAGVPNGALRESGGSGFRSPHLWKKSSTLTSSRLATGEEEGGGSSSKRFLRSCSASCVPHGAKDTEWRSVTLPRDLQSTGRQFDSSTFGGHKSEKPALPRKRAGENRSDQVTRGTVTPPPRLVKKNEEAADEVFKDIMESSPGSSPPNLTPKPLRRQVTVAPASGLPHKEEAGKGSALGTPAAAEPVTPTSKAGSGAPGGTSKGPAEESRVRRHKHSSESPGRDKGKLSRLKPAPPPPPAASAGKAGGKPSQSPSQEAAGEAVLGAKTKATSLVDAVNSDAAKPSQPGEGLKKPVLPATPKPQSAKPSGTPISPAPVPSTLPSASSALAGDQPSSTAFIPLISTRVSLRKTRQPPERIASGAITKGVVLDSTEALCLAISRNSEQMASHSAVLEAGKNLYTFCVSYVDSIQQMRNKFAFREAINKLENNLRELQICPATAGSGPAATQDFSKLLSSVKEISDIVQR
measured_property: IC50
Answer shape: numeric part, then the unit.

Qu. Specify reported IC50 for the molecule shown: `C=C(C)[C@@H]1CC[C@]2(CO)CC[C@]3(C)[C@H](CC[C@@H]4[C@@]5(C)CC[C@H](O)C(C)(C)[C@@H]5CC[C@]43C)[C@@H]12`
Ans. 930 nM

// provenance: paper PMC8347092
